Tested on: Caco-2
Test: cell viability relative to DMSO; higher = less toxic
Settings: 72 h; 10000 nM
Lab note - cut at 90% for cell viability: 1.0 if strictly below, 0.0 if not.

# TODO verify cell viability < 90% strictly for this compound: "COc1cccc(Nc2ncnn3ccc(CN4CC[C@@H](N)[C@H](O)C4)c23)c1" 1.0

# check: cell viability < 90% for C[C@@H]1NC(=O)[C@@H]2CCCN2C(=O)[C@H](CC(N)=O)NC(=O)[C@@H]2CSSC[C@H](N)C(=O)N[C@H]3CSSC[C@H](NC1=O)C(=O)N[C@@H]([C@@H](C)O)C(=O)NCC(=O)N[C@H](C(=O)N[C@@H](Cc1ccc(O)cc1)C(=O)O)CSSC[C@H](NC(=O)[C@H](Cc1ccc(O)cc1)NC(=O)[C@H](CCC(=O)O)NC3=O)C(=O)N2 [linaclotide] 0.0

Does the reported cell viability of the following compound sit strictly below 90%? "N#Cc1c(N)nc(SCC(N)=O)c(C#N)c1-c1ccc(OCC2CC2)cc1" 0.0

Could you please tell me whether cell viability recorded for "O[C@@H](C[C@H]1c2ccccc2-c2cncn21)C1CCCCC1" is less than 90%? 1.0

Find out if reported cell viability for Nc1ncnc2c1ncn2[C@@H]1O[C@H](COP(=O)(O)OP(=O)(O)OP(=O)(O)O)[C@@H](O)[C@H]1O [ADENOSINE TRIPHOSPHATE DISODIUM] is less than 90% 0.0

Problem: For the compound "Cc1cc(NC(=O)NCCN2CCC(O)(Cc3ccccc3)CC2)c2ccccc2n1" , is cell viability under 90%? 0.0

Please state whether cell viability is below 90% for "N#Cc1cccc(C(=O)Nc2cc(-c3ccccc3)nn2-c2ccccc2)c1" 0.0

API: query returns whether the compound falls strictly under 90% in cell viability. Query: "CCOc1cc(C(C)(C)C)ccc1C1=N[C@@](C)(c2ccc(Cl)cc2)[C@@](C)(c2ccc(Cl)cc2)N1C(=O)N1CCN(CCCS(C)(=O)=O)CC1" 1.0

Strictly below 90% in cell viability? "CO[C@H]1C[C@H](O[C@H]2[C@H](C)O[C@@H](O[C@@H]3/C(C)=C/C[C@@H]4C[C@@H](C[C@]5(C=C[C@H](C)[C@@H](C6CCCCC6)O5)O4)OC(=O)[C@@H]4C=C(C)[C@@H](O)[C@H]5OC/C(=C\C=C\[C@@H]3C)[C@]54O)C[C@@H]2OC)O[C@@H](C)[C@@H]1O" 1.0

Please state whether cell viability is below 90% for Cc1cc(C(C#N)c2ccc(Cl)cc2)c(Cl)cc1NC(=O)c1cc(I)cc(I)c1O (configuration not stated) 0.0

A record lists "C[C@@H]1O[C@@H]1P(=O)(O)O" . Is its cell viability below 90%? 0.0

Identify whether the compound "O=c1c(-c2ccccc2)c1-c1ccccc1" records cell viability below 90%. 0.0

In the record for CNC(=O)c1ccc(N2C(=S)N(c3cnc(C#N)c(C(F)(F)F)c3)C(=O)C23CCC3)cc1F [apalutamide] , is cell viability less than 90%? 0.0

Is cell viability strictly under 90% for the entry "O=P(O)(O)C(Cl)(Cl)P(=O)(O)O" ? 0.0

# strict comparison: is reported cell viability < 90%? input = "CC[C@@H](C(N)=O)N1CCCC1=O" 0.0

Please state whether cell viability is below 90% for CC(=O)Oc1ccccc1C(=O)Nc1ncc([N+](=O)[O-])s1 [nitazoxanide] 1.0

A record lists "Cc1ccc(-n2sc(=O)n(Cc3ccc(F)cc3)c2=O)cc1" . Is its cell viability below 90%? 0.0

Say whether its cell viability is strictly beneath 90%. Entry: "O=C(Nc1ccccc1)c1cc([N+](=O)[O-])ccc1Cl" 0.0

Identify whether the compound "O=C(NCC(=O)N1CCCC1)Nc1ccc2cnccc2c1" records cell viability below 90%. 0.0

Please determine if "Nc1ncnc2c1c(-c1cccc(OCc3ccccc3)c1)cn2[C@H]1C[C@@H](CN2CCC2)C1" is below 90% in terms of cell viability. 1.0
